System: LPS-induced TNFα secretion in monocyte-derived macrophages (MdM)
Assay Protocol: MdM assay: LPS-triggered TNFα (ELISA)
Assay type: cell-based, human
Reported Conditions: Homo sapiens, Macrophage, LPS-triggered TNFα inhibition
Protocol: This assay evaluates illustrative compounds of the invention for their inhibition of LPS-induced TNFα and LPS triggered IL-10 secretion in monocyte-derived macrophages. PBMCs are isolated from human blood samples (buffycoats). The buffy coat is aseptically transferred into a 50 mL Falcon tube, and diluted 1/2 in PBS. […]
pEC50: −log10 of the molar value.
Metric: pEC50

> print(dat)
                                   compound   assay.result
1  COc1cc(-n2cnc3cc(-c4cnn(C)c4)ccc32)cc(OC)c1C(=O)NC(C)(C)C         < 5.30
2  CCNC(=O)c1c(OC)cc(-c2cnn3cc(-c4cnn(C)c4)ccc23)cc1OC(F)F  7.00 to 10.00
3  COc1cc(-c2cnc3cc(-c4cnn(C5CN(CC#N)C5)c4)ccn23)cc(OC)c1C(=O)NCC(F)(F)F  7.00 to 10.00
4  COc1cc(-n2cnc3cc(-c4cnn(C5CC5)c4)ccc32)cc(OC)c1C(=O)NCC(F)(F)F  7.00 to 10.00
5  CCOC(=O)CCCn1cc(-c2ccn3c(-c4cc(OC)c(C(=O)NCC(F)(F)F)c(OC)c4)cnc3c2)cn1  7.00 to 10.00
6  COc1cc(-n2cnc3cc(-c4cnn(C)c4)ccc32)cc(OC)c1C(=O)N1CC(F)(F)C1   6.00 to 7.00

Problem: Name the reported pEC50 value associated with the compound COc1cc(-n2cnc3cc(-c4cnn(C5CCNCC5)c4)ccc32)cc(OC)c1C(=O)NCC(F)(F)F
Result: 6.00 to 7.00

Problem: Name the reported pEC50 value associated with the compound COc1cc(-c2cnc3cc(-c4cn(C)cn4)ccn23)cc(OC)c1C(=O)N[C@@H](C)C(F)(F)F
Result: 5.30 to 6.00

Problem: Name the reported pEC50 value associated with the compound COc1cc(-c2cnc3cc(-c4cc(C)no4)ccn23)cc(OC(F)F)c1C(=O)NC1CC1
Result: 7.00 to 10.00

Problem: Name the reported pEC50 value associated with the compound COc1cc(-c2cnc3cc(-c4cnn(C)c4)ccn23)cc(OC)c1C(=O)N[C@H](C)C(F)(F)F
Result: 7.00 to 10.00

Problem: Name the reported pEC50 value associated with the compound CCOC(=O)C(C(C)C)n1cc(-c2ccn3c(-c4cc(OC)c(C(=O)NCC(F)(F)F)c(OC)c4)cnc3c2)cn1 (stereo not drawn)
Result: 7.00 to 10.00

Problem: Name the reported pEC50 value associated with the compound COc1ccc(-c2ccn3c(-c4cc(OC)c(C(=O)NC5CC5)c(OC(F)F)c4)cnc3c2)cn1
Result: 7.00 to 10.00

Problem: Name the reported pEC50 value associated with the compound COc1cc(-n2cnc3cc(-c4ccc(N5CCCC5)nc4)ccc32)cc(OC)c1C(=O)NCC(F)(F)F
Result: 6.00 to 7.00

Problem: Name the reported pEC50 value associated with the compound COc1cc(-n2cnc3cc(-c4cnn(C(C)C)c4)ccc32)cc(OC)c1C(=O)NCC(F)(F)F
Result: 7.00 to 10.00

Problem: Name the reported pEC50 value associated with the compound COc1cc(-c2cnc3cc(-c4cnn(C)c4)cnn23)cc(OC)c1C(=O)NCC(F)(F)F
Result: 6.00 to 7.00

====

List of pIC50 values.
Study System: SIK2 (Homo sapiens)
Construct: purchased ThermoFisher Scientific PV4792
Sequence (Q9H0K1 whole entry): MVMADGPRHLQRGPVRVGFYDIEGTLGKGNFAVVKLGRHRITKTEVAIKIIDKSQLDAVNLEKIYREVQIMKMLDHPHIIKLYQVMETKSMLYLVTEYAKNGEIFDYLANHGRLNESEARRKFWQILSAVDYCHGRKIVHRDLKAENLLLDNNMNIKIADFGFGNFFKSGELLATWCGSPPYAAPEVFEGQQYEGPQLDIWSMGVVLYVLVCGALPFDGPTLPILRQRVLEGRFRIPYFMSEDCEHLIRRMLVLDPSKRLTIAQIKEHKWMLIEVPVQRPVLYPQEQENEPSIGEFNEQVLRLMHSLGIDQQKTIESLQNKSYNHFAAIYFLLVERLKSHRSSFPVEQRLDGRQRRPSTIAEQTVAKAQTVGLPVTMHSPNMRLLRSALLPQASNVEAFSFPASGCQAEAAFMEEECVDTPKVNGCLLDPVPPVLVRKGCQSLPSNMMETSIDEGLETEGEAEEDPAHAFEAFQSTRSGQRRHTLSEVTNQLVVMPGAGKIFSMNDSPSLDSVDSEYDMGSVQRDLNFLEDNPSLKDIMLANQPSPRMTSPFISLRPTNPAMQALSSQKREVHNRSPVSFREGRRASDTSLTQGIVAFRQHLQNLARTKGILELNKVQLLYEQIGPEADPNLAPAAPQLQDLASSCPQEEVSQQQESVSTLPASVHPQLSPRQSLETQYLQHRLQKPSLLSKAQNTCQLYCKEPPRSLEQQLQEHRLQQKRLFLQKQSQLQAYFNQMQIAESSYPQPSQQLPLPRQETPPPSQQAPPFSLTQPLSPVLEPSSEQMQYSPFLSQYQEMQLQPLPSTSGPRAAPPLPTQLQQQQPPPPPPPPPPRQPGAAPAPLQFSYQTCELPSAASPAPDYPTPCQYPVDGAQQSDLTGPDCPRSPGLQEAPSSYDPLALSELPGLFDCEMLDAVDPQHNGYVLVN
Assay Protocol: biochemical
Reported Conditions: 33P radioactive SIK kinase assay, AMARA peptide, 10 μM ATP
pIC50: −log10 of the molar value.

Worked cases, answers included:
> print(dat)
                                   compound   assay.result
1  CCNC(=O)c1c(OC)cc(-c2cnc3cc(-c4cn(C)cn4)ccn23)cc1OC(F)F  8.00 to 11.00
2  COc1cc(-n2cnc3cc(-c4cn(C)cn4)ccc32)cc(OC)c1C(=O)NCC(F)(F)F  8.00 to 11.00
3  COc1cc(-n2cnc3cc(-c4cnn(C)c4)ccc32)cc(OC)c1C(=O)NC1CCS(=O)(=O)C1 (centres unmarked)   6.30 to 7.00
4  COc1cc(-c2cnc3cc(-c4cnn(CC(=O)OC5CCOC5)c4)ccn23)cc(OC)c1C(=O)NCC(F)(F)F (centres unmarked)  8.00 to 11.00
5  COc1cc(-n2cnc3cc(-c4cnn(C)c4)ccc32)cc(OC)c1C(=O)NC1COC1   7.00 to 8.00
6  COc1cc(-n2cnc3cc(-c4cnn(C)c4)ccc32)cc(OC)c1C(=O)NC1CCC1   7.00 to 8.00

Problem: Name the reported pIC50 value associated with the compound COc1cc(-n2cnc3cc(-c4cnn(C)c4)ccc32)cc(OC)c1C(=O)N1CC2(COC2)C1
Result: 7.00 to 8.00

Problem: Name the reported pIC50 value associated with the compound CCn1cc(-c2ccc3c(c2)ncn3-c2cc(OC)c(C(=O)NC3CCCC3)c(OC)c2)cn1
Result: 7.00 to 8.00

====

Study System: SIK1 (Homo sapiens, UniProt P57059)
Construct: purchased Carna Biosciences 02-131
Sequence (P57059 whole entry): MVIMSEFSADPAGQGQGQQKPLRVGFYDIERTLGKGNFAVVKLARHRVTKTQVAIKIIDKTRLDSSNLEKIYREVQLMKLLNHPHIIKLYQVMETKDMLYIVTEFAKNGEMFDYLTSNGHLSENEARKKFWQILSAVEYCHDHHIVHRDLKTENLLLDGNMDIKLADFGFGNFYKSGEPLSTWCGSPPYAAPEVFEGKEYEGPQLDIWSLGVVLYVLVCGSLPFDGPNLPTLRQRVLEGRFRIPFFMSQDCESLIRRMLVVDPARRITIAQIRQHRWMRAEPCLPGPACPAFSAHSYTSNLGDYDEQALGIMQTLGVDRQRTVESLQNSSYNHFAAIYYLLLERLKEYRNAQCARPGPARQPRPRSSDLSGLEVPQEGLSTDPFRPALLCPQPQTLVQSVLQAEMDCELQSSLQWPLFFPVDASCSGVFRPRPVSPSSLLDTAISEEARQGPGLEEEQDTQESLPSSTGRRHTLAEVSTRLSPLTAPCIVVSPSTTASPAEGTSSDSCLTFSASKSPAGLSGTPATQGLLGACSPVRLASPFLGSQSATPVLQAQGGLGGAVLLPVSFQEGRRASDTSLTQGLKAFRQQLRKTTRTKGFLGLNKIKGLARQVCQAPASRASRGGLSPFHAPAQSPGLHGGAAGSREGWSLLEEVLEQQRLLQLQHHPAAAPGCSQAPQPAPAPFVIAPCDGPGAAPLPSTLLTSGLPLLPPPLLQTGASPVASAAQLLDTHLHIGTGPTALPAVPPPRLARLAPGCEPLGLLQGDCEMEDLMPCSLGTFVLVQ
Assay Protocol: biochemical
Reported Conditions: 33P radioactive SIK kinase assay, AMARA peptide, 10 μM ATP; read-out: SIK1 IC50
pIC50: −log10 of the molar value.
List of pIC50 values.

Worked cases, answers included:
> print(dat)
                                        smi                         study.system  assay.result
1  COc1cc(-n2cnc3cc(-c4cnn(C)c4)ccc32)cc(OC)c1C(=O)N[C@H]1CCCC[C@@H]1O  SIK1 (Homo sapiens, UniProt P57059)  6.30 to 7.00
2  CCn1cc(-c2ccc3c(c2)ncn3-c2cc(OC)c(C(=O)NCC(F)F)c(OC)c2)cn1  SIK1 (Homo sapiens, UniProt P57059)  7.00 to 8.00
3  CCn1cc(-c2ccc3c(c2)ncn3-c2cc(OC)c(C(=O)N(C)CCOC)c(OC)c2)cn1  SIK1 (Homo sapiens, UniProt P57059)        < 6.30

// switching to the query molecule
Problem: Name the reported pIC50 value associated with the molecule COc1cncc(-c2ccn3c(-c4cc(OC)c(C(=O)NCC(F)(F)F)c(OC)c4)cnc3c2)c1
Result: 7.00 to 8.00

====

List of pIC50 values.
Study System: SIK1 (Homo sapiens)
Construct: purchased Carna Biosciences 02-131
Assay Protocol: biochemical
Reported Conditions: 33P radioactive SIK kinase assay, AMARA peptide, 10 μM ATP; read-out: SIK1 IC50
pIC50: −log10 of the molar value.

Worked cases, answers included:
> print(dat)
                                   compound         study.system   assay.result
1  COc1cc(-n2cnc3cc(-c4cn(C)cn4)ccc32)cc(OC)c1C(=O)NCC(F)(F)F [Cpd 137]  SIK1 (Homo sapiens)   7.00 to 8.00
2  COc1cc(-c2cnc3cc(-c4cncnc4C(C)C)ccn23)cc(OC)c1C(=O)NCC(F)(F)F [compound 253]  SIK1 (Homo sapiens)         < 6.30
3  COc1cc(-c2cnc3cc(-c4cnn(CC(=O)OCCF)c4)ccn23)cc(OC)c1C(=O)NCC(F)(F)F [Cpd 235]  SIK1 (Homo sapiens)  8.00 to 11.00

// switching to the query compound
Problem: Name the reported pIC50 value associated with the compound COc1cc(-c2cnc3cc(-c4cnn(C)c4)ccn23)cc(OC)c1C(=O)N1CCC(F)(F)C1 [compound 211]
Result: 7.00 to 8.00

====

Test system: LPS-induced TNFα secretion in monocyte-derived macrophages (MdM)
Assay Protocol: MdM assay: LPS-triggered TNFα (ELISA)
Format: cell-based, human
Reported Conditions: Homo sapiens, Macrophage, LPS-triggered TNFα inhibition
List of EC50 values.

Worked cases, answers included:
> print(dat)
                                   compound                              study.system    assay.result
1  COc1cc(-c2cnc3cc(-c4cnnc(C)c4)ccn23)cc(OC)c1C(=O)NCC(F)(F)F [compound 252]  LPS-induced TNFα secretion in monocyte-derived macrophages (MdM)  100 to 1000 nM
2  COc1cc(-n2cnc3cc(-c4ccnc(N5CCN(C)CC5)c4)ccc32)cc(OC)c1C(=O)NCC(F)(F)F [compound 120]  LPS-induced TNFα secretion in monocyte-derived macrophages (MdM)  100 to 1000 nM
3  CCN1Cc2cc(-c3cnc4cc(-c5cnn(C)c5)ccn34)cc(OC)c2C1=O [compound 176]  LPS-induced TNFα secretion in monocyte-derived macrophages (MdM)  100 to 1000 nM
4  CCn1cc(-c2cnc3c(c2)ncn3-c2cc(OC)c(C(=O)NCC(F)(F)F)c(OC)c2)cn1 [Cpd 29]  LPS-induced TNFα secretion in monocyte-derived macrophages (MdM)  100 to 1000 nM
5  C#CC1(O)CN(C(=O)c2c(OC)cc(-n3cnc4cc(-c5cnn(C)c5)ccc43)cc2OC)C1 [compound 221]  LPS-induced TNFα secretion in monocyte-derived macrophages (MdM)  100 to 1000 nM

Problem: Name the reported EC50 value associated with the compound COc1cc(-c2cnc3cc(-c4cnn(C)c4)ccn23)cc(OC)c1C(=O)N1CC(C(F)(F)F)C1 [compound 213]
Result: 0.1 to 100 nM

Problem: Name the reported EC50 value associated with the compound CCNC(=O)c1c(OC)cc(-c2cnc3cc(-c4cnn(C5CCN(C)CC5)c4)ccn23)cc1OC(F)F [compound 148]
Result: 0.1 to 100 nM

Problem: Name the reported EC50 value associated with the compound COc1cc(-n2cnc3cc(-c4cnn(C)c4)ccc32)cc(OC)c1C(=O)NCC(F)F [compound 78]
Result: 100 to 1000 nM

Problem: Name the reported EC50 value associated with the compound COc1cc(-n2cnc3cc(-c4cnc(C)[nH]4)ccc32)cc(OC)c1C(=O)NCC(F)(F)F [compound 152]
Result: 1000 to 5000 nM

Problem: Name the reported EC50 value associated with the compound COc1cc(-c2cnc3cc(-c4cc(C)no4)ccn23)cc(OC)c1C(=O)NCC(F)(F)F [compound 232]
Result: 0.1 to 100 nM

Problem: Name the reported EC50 value associated with the compound COc1cc(-c2cnc3cc(-c4cnn(C)c4)ccn23)cc(C)c1C(=O)NCC(F)(F)F [Cpd 206]
Result: 100 to 1000 nM

Problem: Name the reported EC50 value associated with the compound COc1cc(-n2cnc3cc(-c4cnn(CCN5CCOCC5)c4)ccc32)cc(OC)c1C(=O)NCC(F)(F)F [compound 41]
Result: 100 to 1000 nM

Problem: Name the reported EC50 value associated with the compound COc1cc(-n2cnc3cc(-n4cnc(C)c4)ccc32)cc(OC)c1C(=O)NCC(F)(F)F [Cpd 155]
Result: 1000 to 5000 nM

Problem: Name the reported EC50 value associated with the compound COc1cc(-n2cnc3cc(-c4cc(C)n[nH]4)ccc32)cc(OC)c1C(=O)NCC(F)(F)F [compound 101]
Result: 0.1 to 100 nM

Problem: Name the reported EC50 value associated with the compound COCCOc1cc(-c2cnc3cc(-c4cnn(C)c4)ccn23)cc(OC)c1C(=O)NC1CC1 [Cpd 278]
Result: 100 to 1000 nM

Problem: Name the reported EC50 value associated with the compound COc1cc(-n2cnc3cc(-c4cnn(C(F)F)c4)ccc32)cc(OC)c1C(=O)NCC(F)(F)F [compound 97]
Result: 0.1 to 100 nM
